System: OVCAR-8 ovarian
assay_comment: NCI tumour cell line growth inhibition, 48 h; in the data active = GI50 below about 0.43 µM; inactive = the rest
Classes used: active, inactive

* COc1cc2c(cc1O)c(=O)n(CCN(C)C)c1c3cc4c(cc3ncc21)OCO4 | active
* C1C[OH+]CCNCC[OH+]CC[OH+]CCN1.N.[Cl-].[Pt+4] | inactive
* COc1ccc(-c2cc(-c3ccc(OC)cc3)nc(NCCCNc3ccnc4cc(Cl)ccc34)n2)cc1 | inactive
* S=C1SCN(Cc2ccccc2)CN1Cc1ccccc1 | inactive
* CCCCC(OC(=O)c1ccc(N)cc1)C(=O)Nc1nc(CC(=O)OCC)cs1 (configuration not stated) | inactive
* Cc1nc2ccccc2c(/C=C/c2ccccc2)c1C(=O)/C=C/c1ccc(C(F)(F)F)cc1 | inactive
* CCC[CH2][Sn]1([CH2]CCC)[O]CC[S]1 | inactive
* CCN(CCO)CCCC(C)Nc1ccnc2cc(Cl)ccc12 (configuration not stated) | inactive
* O=C(Nc1cccc(C(F)(F)F)c1)c1ccc(NC2=C(Cl)C(=O)N(Cc3ccccc3)C2=O)cc1 | inactive
* CC[O-].CC[O-].O=C([CH-]C(=O)c1ccccc1)CCCCCCC(=O)[CH-]C(=O)c1ccccc1.[Ti+4] | inactive
* CCOC(=O)c1c2c(n3ccc(NC(=O)CCN4CCCCC4)cc13)C(=O)c1ncccc1C2=O | inactive
* CCCCc1n(Cc2ccc3ccccc3n2)cc[n+]1Cc1ccc2ccccc2n1 | inactive

----------
Tested on: ACHN renal
assay_comment: NCI tumour cell line growth inhibition, 48 h
reported_endpoint: TGI

- C/C(CC(C)(C)N1CC1)=N\NC(=O)Nc1cccc2ccccc12: 11.8 µM
- Cc1nn(C(=O)Cc2ccccc2)c2c1C(c1ccc([N+](=O)[O-])cc1)SC(N)=N2 (stereo unspecified): > 100 µM
- CCOC(=O)[C@@]1(C(C)=O)CC(C)=C(C)C[S@]1=O: > 100 µM
- O=C(O)CCSC(=O)Nc1cccc2ccccc12: > 100 µM
- C#CC(C)(C)OCCCCOc1cc(O)c2c(=O)c3ccccc3n(C)c2c1: > 100 µM
- CNC(=O)N1CN(c2ccccc2)C2(CCN(Cc3ccccc3)CC2)C1=O: > 100 µM
- C[N+](C)(C)C1CC([N+](C)(C)C)C2c3ccccc3C21 (stereo unspecified): > 100 µM
- CCCCCCCC(=O)OCC1OC(n2cc(F)c(=O)[nH]c2=O)C(N)C(O)C1O (stereo unspecified): > 100 µM
- CO/C=C(\Br)c1ccc2c(c1)OCO2: > 100 µM
- COC(=O)CCC(=O)c1ccc2c(c1)CC1(C2)Cc2ccc(C(=O)CCC(=O)OC)cc2C1: > 100 µM
- C=CCn1c(=O)c(Br)nn(CCOCP(=O)(OCC)OCC)c1=O: > 100 µM

----------
Test system: DU-145 prostate
assay_comment: NCI tumour cell line growth inhibition, 48 h
reported_endpoint: TGI

* CC(=O)OC12CC[N+]3(C)CCCCC3C1=Nc1ccccc12 (stereo not given) | > 100 µM
* Cc1c(C(=O)Nc2ccccc2)nnn1-c1ccnc2cc(C(F)(F)F)ccc12 | > 100 µM
* COCN1C(=N)C(C(=O)OC(C)(C)C)=C2C=C(O)C=CC21C (stereo not given) | 24.2 µM
* Cc1cc(=O)oc2cc3oc(N(C)c4ccccc4)nc(=O)c3cc12 | > 100 µM
* COc1nc2ccc(CNc3ccc(C(=O)NC(CCC(=O)O)C(=O)O)cc3)cc2nc1OC (stereo not given) | > 100 µM
* O=C(c1ccccc1)C1OC1C(=O)c1ccccc1 (stereo not given) | 4.28 µM
* CC(C)=NOC(=O)OC[C@H]1O[C@@H](n2cnc3c(N)ncnc32)C(O)C1O (stereo not given in full) | > 100 µM
* CN(C)/C=C/c1c2c(nc3ccccc13)C(=O)c1cccnc1C2=O | 1.47 µM
* O=C1c2cn[nH]c2N=C(Nc2ccccc2)C1N=Cc1ccc([N+](=O)[O-])cc1 (stereo not given) | > 10 µM
* O=C1/C(=C/C=C/c2ccccc2)N=C(c2ccccc2)N1c1ccc(S(=O)(=O)Nc2nccs2)cc1 | > 100 µM

----------
Each entry below lists one item and its recorded TGI value.
Test system: TK-10 renal
assay_comment: NCI tumour cell line growth inhibition, 48 h
reported_endpoint: TGI (µM)

* CC1=C2[C@@H](CC1)[C@]1(C)O[C@@](C(C)C)(C[C@H]1OC(=O)CO)[C@H]2OC(=O)CCCc1ccccc1 | 32.8
* C/C(CC(C)(C)N1CC1)=N\NC(=O)Nc1cccc2ccccc12 | 7.23

----------
System: TK-10 renal
assay_comment: NCI tumour cell line growth inhibition, 48 h; in the data active means GI50 below about 0.43 µM; inactive means the rest
Classes used: class 1 for active, class 0 for inactive

• CCCCC(OC(=O)c1ccc(N)cc1)C(=O)Nc1nc(CC(=O)OCC)cs1 (centres undefined) = class 0
• FC(F)(F)c1cc(NC(=S)N2c3ccccc3-n3cccc3C2c2cccnc2)cc(C(F)(F)F)c1 (centres undefined) = class 0
• COc1ccc(CNCCCN2C(=O)c3ccc4c5c(ccc(c35)C2=O)C(=O)N(CCCNCc2ccc(OC)c(OC)c2OC)C4=O)c(OC)c1OC = class 1
• O=c1oc2ccc(Cl)cc2c(=O)n1-c1ccc(F)cc1F = class 0
• O=C1c2cc3c(cc2-c2c1c1ccc(F)cc1c(=O)n2C[C@H](O)[C@H](O)[C@H](O)CO)OCO3 = class 1
• S=C1SCN(Cc2ccccc2)CN1Cc1ccccc1 = class 0
• CCOC(=O)Nc1ccc2c(c1)C(=O)N(CC)c1ccccc1O2 = class 0
• O=C1c2ccccc2C(=O)c2c1oc1c2c(=O)[nH]c2ccc(Cl)cc21 = class 1
• CCN(CC)CCn1c(=O)c2cc(OC)c(OC)cc2c2ccc3cc4c(cc3c21)OCO4 = class 0
• O=C(c1ccccc1)C1OC1C(=O)c1ccccc1 (centres undefined) = class 0
• CCCS(=O)(=O)Nc1cccc(Nc2ncnc3cc(NC(=O)CCl)ccc23)c1Cl = class 0
• O=C(Nc1n[nH]c2nc(-c3ccc(O)cc3)c(Br)cc12)C1CC1 = class 0
• CC[C@]12C=CCN3CC[C@@]4(c5ccc(OC)cc5N(C)[C@H]4[C@@](O)(C(=O)OC)[C@@H]1OC(=O)CCC(=O)O[C@H]1CC[C@H]4[C@@H]5CC[C@H]6CC(=O)CC[C@]6(C)[C@H]5CC[C@]14C)[C@@H]32 = class 0
• Cc1c[nH]c(=O)n(Cc2nnc(CCC(=O)c3nc4ccccc4[nH]3)o2)c1=O = class 0

----------
Tested on: 786-0 renal
assay_comment: NCI tumour cell line growth inhibition, 48 h
Each entry below lists one item and its recorded TGI value.
reported_endpoint: TGI

- Cc1cc(C#N)c(Nc2ccc(F)cc2[N+](=O)[O-])s1: > 100 µM
- CCOC(=O)c1c(-c2ccc(OC)c(O)c2)c(C#N)c(=S)n(C2OC(COC(C)=O)C(OC(C)=O)C(OC(C)=O)C2OC(C)=O)c1-c1ccccc1 (configuration not stated): > 100 µM
- COc1ccc([Se][Se]c2ccc(OC)cc2OC)c(OC)c1: 7.78 µM
- CC1(C)CCc2c(c(N=Nc3ccccc3F)c3ccccc3c2O)O1: 60.3 µM
- CCCCCCCC(=O)OC[C@H](C[As](=O)(O)O)OC(=O)CCCCCCC: 26.7 µM
- COc1ccc(C[C@]23CCC(=O)N2CCc2cc(OC)c(O)cc23)cc1O: > 100 µM
- CC(C)(C)OC(=O)N1CC(C)(C)N2C(=O)C3(CCCO3)C12 (configuration not stated): > 100 µM
- Cc1oc2nc(N(C)C)nc(NN)c2c1C: > 100 µM
- C=CCc1cccc2cc(C(=O)Nc3ccc(C)cc3)c(=N)oc12: > 100 µM
- CCc1cccc(C(C)CC)c1NC(=O)C(=O)Cc1nc2ccccc2o1 (configuration not stated): > 50 µM
- CN=C1CN=C(OP(=O)(N2CCOCC2)N2CCOCC2)c2cc(Cl)ccc2N1: > 100 µM
- CC(C)CNCCc1ccccn1: > 100 µM
- COc1ccc(-c2cc(=O)c3cc(C)c(C)c(C(=O)O)c3o2)cc1: > 100 µM
- FC(F)(F)c1nc(SCc2ccc(Cl)cc2)n[nH]1: > 100 µM
- C#CC(C)(C)OCCCCOc1cc(O)c2c(=O)c3ccccc3n(C)c2c1: > 100 µM
- Cc1cc(=O)oc2cc3oc(N(C)c4ccccc4)nc(=O)c3cc12: > 100 µM
- COc1ccccc1/C=N/Nc1nnc2c3ccccc3c3ncccc3c2n1: 90.6 µM
- CCCCC(OC(=O)c1ccc(N)cc1)C(=O)Nc1nc(CC(=O)OCC)cs1 (configuration not stated): > 100 µM
- C1=CCC[C@@H]2CN3CCCC/C=C\CCCC[C@H]4C[C@H](CN(CCCCCCCC1)C4)[C@H]2CC3: 15.9 µM
- O=C1NC(=O)C(C(c2ccc([N+](=O)[O-])cc2)C2C(=O)NC(=O)NC2=O)C(=O)N1: > 100 µM
- C[C@]12CCc3nonc3C1CC[C@@H]1C2CC[C@@]2(C)C1CC[C@@H]2O (some centres not stated): > 100 µM
- O=C1CCCCCCCCCCC1CN1CCOCC1 (configuration not stated): > 100 µM
